FYI, the data here is from paper doi:10.1101/2022.08.09.502705v1.

- Test system: iEscSnFR
- assay.summary: fluorescence concentration-response of purified biosensor
- Format: binding
- particulars: purified protein
recorded.metric: pEC50
// pEC50 is dimensionless: -log10 of concentration (M)

CN(C)CCC[C@@]1(c2ccc(F)cc2)OCc2cc(C#N)ccc21 [escitalopram]    5.35

For the molecule C[N+](C)(C)CCO [choline] , the measured pEC50 on iEscSnFR was 3.85

Item C[N+](C)(C)CCC[C@@]1(c2ccc(F)cc2)OCc2cc(C#N)ccc21 [N-methylescitalopram] ; assay system iEscSnFR; pEC50 reported as 5.74

----------
- measured.on: iFluoxSnFR
- assay.summary: isothermal titration calorimetry
- particulars: 3x PBS pH […] °C
recorded.metric: pKd
Give only the number. pKd is defined as minus log10 of concentration in molar units.

The value of pKd recorded for C[N+](C)(C)CCC(Oc1ccc(C(F)(F)F)cc1)c1ccccc1 (racemic) when tested on iFluoxSnFR reads 4.55
